Assay: In vitro antiarthritic activity assessed as inhibition of bovine serum albumin denaturation at 400 ug/mL incubated for 20 mins at 37 degC following rise in temperature up to 57 degC for 3 mins by UV-Visible spectrophotometry
Type: functional
Mark Not satisfied for inhibition values under 70%, and Satisfied for everything at or above.

See these solved cases before continuing.
INSERT INTO results (line_notation, assigned_label) VALUES
  ('O=C1COc2ccccc2-c2ccccc2OCC(=O)NCc2ccc(cc2)-c2cccc(c2)-c2ccc(cc2)CN1', 'Satisfied'),
  ('O=C1NCc2ccc(cc2)-c2cccc(c2)-c2ccc(cc2)CNC(=O)c2cccc(c2)OCc2cccc(c2)COc2cccc1c2', 'Satisfied'),
  ('O=C1NCc2ccc(cc2)-c2cccc(c2)-c2ccc(cc2)CNC(=O)c2cccc(c2)OCc2ccc(cc2)COc2cccc1c2', 'Not satisfied'),
  ('O=C1NCc2ccc(cc2)-c2cccc(c2)-c2ccc(cc2)CNC(=O)c2cccc(c2)OCc2cc(cc([N+](=O)[O-])c2)COc2cccc1c2', 'Satisfied'),
  ('O=C(O)Cc1ccccc1Nc1c(Cl)cccc1Cl', 'Not satisfied'),
  ('O=C1COc2cccc(c2)OCC(=O)NCc2ccc(cc2)-c2cccc(c2)-c2ccc(cc2)CN1', 'Satisfied'),
  ('O=C1COc2ccc3ccc(cc3c2)OCC(=O)NCc2ccc(cc2)-c2cccc(c2)-c2ccc(cc2)CN1', 'Satisfied'),
  ('O=C1NCc2ccc(cc2)-c2cccc(c2)-c2ccc(cc2)CNC(=O)c2cccc(c2)OCc2ccccc2-c2ccccc2COc2cccc1c2', 'Satisfied');

Now take the following compound into account.
q: Does `O=C1NCc2ccc(cc2)-c2cccc(c2)-c2ccc(cc2)CNC(=O)c2cccc(c2)OCc2ccccc2COc2cccc1c2` have a reported inhibition of at least 70%?
a: Satisfied

###

Assay: In vitro antiarthritic activity assessed as inhibition of bovine serum albumin denaturation at 400 ug/mL incubated for 20 mins at 37 degC following rise in temperature up to 57 degC for 3 mins by UV-Visible spectrophotometry
Assay type: functional
Readings of inhibition for the listed molecules
Express the result in % but write the number alone.

Previously resolved entries follow.
INSERT INTO assay_data (line_notation, measurement_kind, measured_value) VALUES
  ('O=C1NCc2ccc(cc2)-c2cccc(c2)-c2ccc(cc2)CNC(=O)c2cccc(c2)OCc2cccc(n2)COc2cccc1c2', 'inhibition', 70),
  ('O=C1COc2ccc3ccccc3c2-c2c(ccc3ccccc23)OCC(=O)NCc2ccc(cc2)-c2cccc(c2)-c2ccc(cc2)CN1', 'inhibition', 69.9);

Next molecule, inhibition to be filled in.
q: Dear colleague, I am looking for the recorded inhibition of the following molecule: `O=C1NCc2ccc(cc2)-c2cccc(c2)-c2ccc(cc2)CNC(=O)c2cccc(c2)OCc2ccc(cc2)-c2cccc(c2)-c2ccc(cc2)COc2cccc1c2`
a: 68.6
